MEASURED_TARGET: EPHB1 (UniProt P54762)
Sequence (P54762 whole entry, looked up): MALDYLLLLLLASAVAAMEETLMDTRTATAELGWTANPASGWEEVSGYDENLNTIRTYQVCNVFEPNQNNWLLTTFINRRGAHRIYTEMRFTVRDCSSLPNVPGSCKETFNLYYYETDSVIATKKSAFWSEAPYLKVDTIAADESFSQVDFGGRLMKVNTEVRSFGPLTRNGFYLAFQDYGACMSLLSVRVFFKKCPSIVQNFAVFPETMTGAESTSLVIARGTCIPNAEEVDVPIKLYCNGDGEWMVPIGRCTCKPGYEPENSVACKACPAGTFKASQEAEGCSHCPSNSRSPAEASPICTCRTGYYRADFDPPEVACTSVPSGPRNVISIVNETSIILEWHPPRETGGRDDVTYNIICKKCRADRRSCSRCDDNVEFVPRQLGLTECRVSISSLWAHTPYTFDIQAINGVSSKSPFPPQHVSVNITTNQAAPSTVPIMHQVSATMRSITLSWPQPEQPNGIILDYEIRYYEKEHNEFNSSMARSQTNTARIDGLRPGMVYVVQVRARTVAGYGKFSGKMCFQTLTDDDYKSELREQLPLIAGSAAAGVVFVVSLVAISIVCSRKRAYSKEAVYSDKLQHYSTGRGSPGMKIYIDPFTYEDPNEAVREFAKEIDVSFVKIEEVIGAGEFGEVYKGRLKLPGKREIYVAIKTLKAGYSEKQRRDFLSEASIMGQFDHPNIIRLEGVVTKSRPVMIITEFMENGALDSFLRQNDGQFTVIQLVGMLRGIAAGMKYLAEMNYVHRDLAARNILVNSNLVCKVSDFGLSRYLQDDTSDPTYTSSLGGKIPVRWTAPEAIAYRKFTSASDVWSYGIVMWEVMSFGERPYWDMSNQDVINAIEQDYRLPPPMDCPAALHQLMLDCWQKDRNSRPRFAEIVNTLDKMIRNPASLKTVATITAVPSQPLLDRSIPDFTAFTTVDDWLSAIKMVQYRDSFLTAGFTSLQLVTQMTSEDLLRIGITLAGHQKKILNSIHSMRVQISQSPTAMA
ASSAY_SUMMARY: phosphorylation enrichment, bacterial display (enrichment ratio); higher = better substrate or ligand; peptides without Tyr show the background;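 note: 11-residue human phosphosite peptides and single-mutation variants displayed on the E. coli surface, counted by deep sequencing, each peptide's frequency after selection divided by its frequency in the unselected input library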;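 note: frequency after pTyr selection over input frequency; kinase dosed for 20-30% of maximal phosphorylation in three min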
Field: phosphorylation enrichment. Provide a value for each of the sequences that follow.
# print the numeric value only

GET /values?readout=phosphorylation enrichment&item= RHRSGYVLIAM [EFR3A_Y73] 0.307

GET /values?readout=phosphorylation enrichment&item= PLQHVYKIGGI [EEF1A2_Y254_D252H] 0.73

GET /values?readout=phosphorylation enrichment&item= GPGSGYTNIMR [PKLR_Y564_R559G] 0.48

GET /values?readout=phosphorylation enrichment&item= RLLRGYDQSAY [HLA-C_Y137] 0.569

GET /values?readout=phosphorylation enrichment&item= KSRQIYDAYIM [GRK3_Y109_R104K] 2.98

GET /values?readout=phosphorylation enrichment&item= IVEFAYNDKAV [PUM3_Y259_I264V_YF] 0.561

GET /values?readout=phosphorylation enrichment&item= QEGPEYWDGET [HLA-A_Y83_Q86G] 0.739

====

MEASURED_TARGET: EPHB2 (UniProt P29323)
Sequence (P29323 whole entry, looked up): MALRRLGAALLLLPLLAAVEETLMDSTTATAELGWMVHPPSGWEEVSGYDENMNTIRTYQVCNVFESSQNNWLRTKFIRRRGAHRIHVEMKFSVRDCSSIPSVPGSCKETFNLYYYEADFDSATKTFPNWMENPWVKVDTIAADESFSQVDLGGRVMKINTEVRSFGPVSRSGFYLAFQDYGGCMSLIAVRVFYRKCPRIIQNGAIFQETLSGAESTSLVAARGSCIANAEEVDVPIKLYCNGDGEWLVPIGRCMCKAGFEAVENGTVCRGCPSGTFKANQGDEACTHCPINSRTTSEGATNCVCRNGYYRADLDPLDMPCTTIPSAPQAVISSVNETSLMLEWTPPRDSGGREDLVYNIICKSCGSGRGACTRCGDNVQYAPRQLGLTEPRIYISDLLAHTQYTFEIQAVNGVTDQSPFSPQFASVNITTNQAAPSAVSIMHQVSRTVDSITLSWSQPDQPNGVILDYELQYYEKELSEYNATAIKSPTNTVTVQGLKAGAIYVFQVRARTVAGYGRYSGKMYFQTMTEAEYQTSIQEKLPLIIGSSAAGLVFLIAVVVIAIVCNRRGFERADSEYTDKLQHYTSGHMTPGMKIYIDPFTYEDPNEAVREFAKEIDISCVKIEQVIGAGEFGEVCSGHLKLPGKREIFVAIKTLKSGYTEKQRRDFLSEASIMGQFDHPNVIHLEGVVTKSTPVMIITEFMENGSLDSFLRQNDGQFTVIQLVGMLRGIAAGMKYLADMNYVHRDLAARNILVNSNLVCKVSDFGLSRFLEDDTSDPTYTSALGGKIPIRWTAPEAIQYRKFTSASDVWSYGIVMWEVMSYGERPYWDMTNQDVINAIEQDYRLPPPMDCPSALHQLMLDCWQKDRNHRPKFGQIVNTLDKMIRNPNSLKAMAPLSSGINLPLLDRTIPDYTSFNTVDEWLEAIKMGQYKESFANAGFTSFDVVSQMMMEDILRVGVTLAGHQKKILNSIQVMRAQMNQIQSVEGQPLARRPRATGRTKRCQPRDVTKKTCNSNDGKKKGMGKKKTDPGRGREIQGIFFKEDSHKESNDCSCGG
ASSAY_SUMMARY: phosphorylation enrichment, bacterial display (enrichment ratio); higher = better substrate or ligand; peptides without Tyr show the background
Category key, based on recorded phosphorylation enrichment: LOW: < 0.4; MEDIUM: ≥ 0.4 and < 0.8; HIGH: ≥ 0.8

Category of CEHFSYFGMKA [SLC15A2_Y60_R57H_YF] : MEDIUM

Category of LINSVYGCSRQ [TMPRSS6_Y290_T287N] : HIGH

Category of VIKDKYPQARF [APTX_Y209_K211Q_YF] : LOW

Category of NLTLKYPIEHG [ACTA1_Y71_I66N] : MEDIUM

Category of ADCRYYAFPQM [GAMT_Y223] : HIGH

Category of TKFRNYLIPKG [CYP2C8_Y379] : MEDIUM

Category of VECHPYFTQPK [AKR1D1_Y199] : MEDIUM

Category of LKALKYKSMKI [ITGA11_Y1098] : LOW

Category of QNTADYYDLYG [PTPN11_Y62_G60A] : HIGH

Category of SFLSYYTSHVQ [NEFL_Y443_P440L] : HIGH

Category of SGPRRYNIAAL [TTR_Y125_T126N] : LOW

====

MEASURED_TARGET: MERTK (UniProt Q12866)
Sequence (Q12866 whole entry, looked up): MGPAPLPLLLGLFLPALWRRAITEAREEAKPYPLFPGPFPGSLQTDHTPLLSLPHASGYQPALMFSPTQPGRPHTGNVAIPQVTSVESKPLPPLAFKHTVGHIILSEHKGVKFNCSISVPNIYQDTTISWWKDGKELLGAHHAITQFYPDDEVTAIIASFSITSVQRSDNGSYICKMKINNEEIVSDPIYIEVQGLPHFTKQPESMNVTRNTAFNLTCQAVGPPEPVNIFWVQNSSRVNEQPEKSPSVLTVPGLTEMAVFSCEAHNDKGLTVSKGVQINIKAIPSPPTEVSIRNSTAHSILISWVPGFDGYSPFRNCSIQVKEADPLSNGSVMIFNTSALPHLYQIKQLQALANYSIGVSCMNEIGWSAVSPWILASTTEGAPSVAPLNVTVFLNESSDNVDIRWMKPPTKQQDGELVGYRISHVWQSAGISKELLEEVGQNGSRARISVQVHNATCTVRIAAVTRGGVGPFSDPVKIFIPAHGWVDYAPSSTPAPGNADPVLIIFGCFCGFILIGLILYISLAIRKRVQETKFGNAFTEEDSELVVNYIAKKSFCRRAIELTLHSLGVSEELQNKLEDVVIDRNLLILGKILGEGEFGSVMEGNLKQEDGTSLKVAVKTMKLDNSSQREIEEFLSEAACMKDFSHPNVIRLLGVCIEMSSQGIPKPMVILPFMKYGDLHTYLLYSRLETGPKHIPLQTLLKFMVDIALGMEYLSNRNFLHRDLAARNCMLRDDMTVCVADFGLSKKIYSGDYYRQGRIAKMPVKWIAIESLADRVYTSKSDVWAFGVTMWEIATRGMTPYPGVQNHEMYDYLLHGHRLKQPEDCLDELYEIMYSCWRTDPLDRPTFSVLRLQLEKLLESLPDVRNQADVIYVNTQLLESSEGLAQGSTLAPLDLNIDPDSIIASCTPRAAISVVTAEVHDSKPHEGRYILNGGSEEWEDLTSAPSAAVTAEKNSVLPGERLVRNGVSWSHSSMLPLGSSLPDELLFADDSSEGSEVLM
ASSAY_SUMMARY: phosphorylation enrichment, bacterial display (enrichment ratio); higher = better substrate or ligand; peptides without Tyr show the background
MEASUREMENT_KIND: phosphorylation enrichment
# print the numeric value only

GET /values?readout=phosphorylation enrichment&item= QMEKICTQQIQ [CCNB1IP1_Y125_Y125C] 0.461

GET /values?readout=phosphorylation enrichment&item= NVTGHYIPPFH [PPA2_Y59_S61P] 0.659

GET /values?readout=phosphorylation enrichment&item= HLATEYVFSDF [PANX1_Y10_Q5H] 0.639

GET /values?readout=phosphorylation enrichment&item= EPVSDYINANI [PTPN11_Y304] 0.325

GET /values?readout=phosphorylation enrichment&item= TSNNPYFRDQA [RPGRIP1_Y846_A841T] 0.473

GET /values?readout=phosphorylation enrichment&item= TIQDAYMHITS [ADCY10_Y318_A313T] 0.529

GET /values?readout=phosphorylation enrichment&item= AVRVFYRKCPH [EPHB2_Y194_R199H] 0.485

GET /values?readout=phosphorylation enrichment&item= LTFPDYLPCSV [SAG_Y129] 0.463

GET /values?readout=phosphorylation enrichment&item= MGIMLYGVDSR [PKD1_Y3143_V3138M] 0.475

GET /values?readout=phosphorylation enrichment&item= DPADRYLTEQF [CDKL5_Y286_C291Y_YF] 0.6

GET /values?readout=phosphorylation enrichment&item= QSAGQYSSQGL [TNNI3K_Y788] 0.584

GET /values?readout=phosphorylation enrichment&item= CTTIHDNYMCN [TP53_Y234_Y234D] 0.507

GET /values?readout=phosphorylation enrichment&item= LQTYRYHGLSM [PDHA1_Y289_H292L] 0.443

GET /values?readout=phosphorylation enrichment&item= VNNAVYGIDAM [EIF3J_Y143] 0.426

GET /values?readout=phosphorylation enrichment&item= RCFVFYFSFLL [PTEN_Y177_R173C_YF] 0.38

GET /values?readout=phosphorylation enrichment&item= GEPLSYTRFSL [TFRC_Y20] 0.567

GET /values?readout=phosphorylation enrichment&item= GPIFRYDSGGA [CYP11B1_Y81_L83S] 0.42

GET /values?readout=phosphorylation enrichment&item= YYHCTYKKRMI [CLEC12A_Y242] 1.48

GET /values?readout=phosphorylation enrichment&item= ADCRYYAFPQM [GAMT_Y223] 9.72

GET /values?readout=phosphorylation enrichment&item= RAFSWYQHQRA [NDST1_Y714_YF] 0.424

GET /values?readout=phosphorylation enrichment&item= VHFARYLAMNK [HARS1_Y138_P134H] 0.509

GET /values?readout=phosphorylation enrichment&item= WGLCSYYETSK [MAGED2_Y448_R446C] 0.56

GET /values?readout=phosphorylation enrichment&item= FSIAQYCCRMG [LRRK2_Y2023_G2019S_YF] 0.994

GET /values?readout=phosphorylation enrichment&item= PLGVLYKVKVF [PTS_Y128_V124L_YF] 0.446

GET /values?readout=phosphorylation enrichment&item= DTKAFYPEEIS [HSPA1A_Y115_E110D] 0.432

GET /values?readout=phosphorylation enrichment&item= SMEGLYSSAQD [CLIC5_Y111_T114A] 1.52

GET /values?readout=phosphorylation enrichment&item= PLDGEYFTLHI [TP53_Y327_Q331H] 0.752

GET /values?readout=phosphorylation enrichment&item= LRGVIYVILRK [PMP22_Y153_S149R] 0.393
